# Experimental system: T1, huNav157 chimera 14 + β1-β2-β3 (human)
# T1 construct: Chimera of huNav1.7α (extracellular loops and transmembrane helices) and huNav1.5α (intracellular loops); also called Nav157ch14-β1-β2-β3; huNav157 chimera 14-beta1-beta2-beta3
# Assay overview: binding FACS, HEK FlpIn cells
Measurement kind: EC50
Kindly format the answer as number then unit.

Binder: F010301643 (VHH, also called F0103387G05(L11V, A14P, D23A, N82bS, N83R, V89L, R105Q)) VHH: EVQLVESGGGVVQPGGSLRLSCAASGRILRIGYMRWHRQGAGKQREFVARITDDSATDYADSVKGRFTISRDNAKNTVYLQMNSLRPEDTALYYCEALVTASVRGGSIHSGTYWGQGTLVTVSS
Measurement kind: EC50
Result: 3.6 nM

Binder: F010301645 (VHH, also called F0103387G05(L11V, A14P, G40A, N82bS, N83R, V89L, R105Q)) VHH: EVQLVESGGGVVQPGGSLRLSCDASGRILRIGYMRWHRQAAGKQREFVARITDDSATDYADSVKGRFTISRDNAKNTVYLQMNSLRPEDTALYYCEALVTASVRGGSIHSGTYWGQGTLVTVSS
Measurement kind: EC50
Result: 4.6 nM

Binder: F0103387G05 (parental)-FLAG-HIS6 (VHH) VHH: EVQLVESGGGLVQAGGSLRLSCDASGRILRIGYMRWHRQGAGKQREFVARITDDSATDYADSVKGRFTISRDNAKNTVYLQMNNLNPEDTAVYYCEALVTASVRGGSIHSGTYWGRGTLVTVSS
Measurement kind: EC50
Result: 3.6 nM

Record F010301646 (VHH, also called F0103387G05(L11V, A14P, A41P, N82bS, N83R, V89L, R105Q)) VHH: EVQLVESGGGVVQPGGSLRLSCDASGRILRIGYMRWHRQGPGKQREFVARITDDSATDYADSVKGRFTISRDNAKNTVYLQMNSLRPEDTALYYCEALVTASVRGGSIHSGTYWGQGTLVTVSS , field EC50: 4.2 nM
